tested on: Streptococcus pyogenes; assay: Antibacterial activity against constitutive MLS resistant Streptococcus pyogenes by agar microdilution method; type: functional
Reported MIC by item:

Query :: Retrieve MIC measured for CC[C@H]1OC(=O)[C@H](C)[C@@H](O[C@H]2C[C@@](C)(OC)[C@@H](OCCNCCOCCNc3cc4c(=O)c(C(=O)O)cn(C5CC5)c4cc3Cl)[C@H](C)O2)[C@H](C)[C@@H](O[C@@H]2O[C@H](C)C[C@H](N(C)C)[C@H]2O)[C@](C)(O)C[C@@H](C)CN(C)[C@H](C)[C@H]2OC(=O)O[C@@]21C and print it.
Result :: 0.5 µg/mL

Query :: Read off the recorded MIC for CC[C@H]1OC(=O)[C@H](C)[C@@H](O[C@H]2C[C@@](C)(OC)[C@@H](OCCNCCNc3cc4c(=O)c(C(=O)O)cn(C5CC5)c4cc3Cl)[C@H](C)O2)[C@H](C)[C@@H](O[C@@H]2O[C@H](C)C[C@H](N(C)C)[C@H]2O)[C@](C)(O)C[C@@H](C)CN(C)[C@H](C)[C@H]2OC(=O)O[C@@]21C
Result :: 2 µg/mL

Query :: Report MIC for CC[C@H]1OC(=O)[C@H](C)[C@@H](O[C@H]2C[C@@](C)(OC)[C@@H](OCCCC(=O)NCCOCCOCCNc3cc4c(=O)c(C(=O)O)cn(C5CC5)c4cc3Cl)[C@H](C)O2)[C@H](C)[C@@H](O[C@@H]2O[C@H](C)C[C@H](N(C)C)[C@H]2O)[C@](C)(O)C[C@@H](C)CN(C)[C@H](C)[C@@H](O)[C@]1(C)O
Result :: 4 µg/mL

Query :: Give the value of MIC reported for the following: CC[C@H]1OC(=O)[C@H](C)[C@@H](O[C@H]2C[C@@](C)(OC)[C@@H](OCCCC(=O)NCCOCCNc3cc4c(cc3F)c(=O)c(C(=O)O)cn4C3CC3)[C@H](C)O2)[C@H](C)[C@@H](O[C@@H]2O[C@H](C)C[C@H](N(C)C)[C@H]2O)[C@](C)(O)C[C@@H](C)CN(C)[C@H](C)[C@@H](O)[C@]1(C)O
Result :: 4 µg/mL

Query :: Determine its reported MIC: CC[C@H]1OC(=O)[C@H](C)[C@@H](O[C@H]2C[C@@](C)(OC)[C@@H](OCCCC(=O)NCCOCCNc3cc4c(=O)c(C(=O)O)cn(C5CC5)c4cc3Cl)[C@H](C)O2)[C@H](C)[C@@H](O[C@@H]2O[C@H](C)C[C@H](N(C)C)[C@H]2O)[C@](C)(O)C[C@@H](C)CN(C)[C@H](C)[C@@H](O)[C@]1(C)O
Result :: 2 µg/mL
